test system: human PD-1 (NM_005018.2) over-expressed on cells (human, UniProt Q15116 25-288)
Sequence (Q15116 25-288): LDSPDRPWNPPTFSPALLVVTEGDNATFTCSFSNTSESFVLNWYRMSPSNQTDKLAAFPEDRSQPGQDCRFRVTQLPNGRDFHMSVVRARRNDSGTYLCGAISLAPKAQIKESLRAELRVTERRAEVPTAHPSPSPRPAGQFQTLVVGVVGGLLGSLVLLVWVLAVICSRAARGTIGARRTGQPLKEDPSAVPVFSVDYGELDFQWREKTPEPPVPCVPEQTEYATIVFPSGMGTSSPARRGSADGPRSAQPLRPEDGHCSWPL
assay protocol: cell-based or functional assay
endpoint label: EC50 [nM], PD1/PD-L1 blockade bioassay (nM)
Answer in nM, number only, no unit symbol.

// solved cases for EC50 [nM], PD1/PD-L1 blockade bioassay follow
1. PD1-48A9 (antibody, V domains shown, scFv-phage in the screening ELISA; whole IgG in the other assays) VH: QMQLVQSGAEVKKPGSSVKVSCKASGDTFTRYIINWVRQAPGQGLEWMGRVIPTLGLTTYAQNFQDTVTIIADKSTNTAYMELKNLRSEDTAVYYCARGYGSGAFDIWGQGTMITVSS VL: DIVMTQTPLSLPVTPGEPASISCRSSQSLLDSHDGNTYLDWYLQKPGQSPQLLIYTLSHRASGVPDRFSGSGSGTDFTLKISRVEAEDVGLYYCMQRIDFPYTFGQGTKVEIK ... 8.64
2. PD1-45D6(A/3H4) (antibody, V domains shown) VH: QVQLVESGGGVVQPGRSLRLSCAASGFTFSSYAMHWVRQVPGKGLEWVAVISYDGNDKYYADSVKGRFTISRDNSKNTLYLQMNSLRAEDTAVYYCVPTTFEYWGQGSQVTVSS VL: DIVMTQTPLSLPVTPGEPASISCRSSQSLFDSDDGNTYLDWYLQKPGQSPQLLIYTLSHRASGVSDRFSGSGSGTDFTLKISRVEAEDSGIYYCMQRVEFPFTFGQGTKLDIK ... 1.67

For the binder PD1-49A2(A/2B9) (antibody, V domains shown, scFv-phage in the screening ELISA; whole IgG in the other assays; also called 49A2-2B9; 49A2 (2B9)) VH: QVQLVESGGGVVQPGRSLRLSCAASGFTFLRYAMHWVRQAPGKGLEWVAVISYDGRYKYYADSVKGRFTISRDNSKNTLYLQMNSLRAEDTAVYYCTTTTFDSWGQGTLVTVSS VL: DIVMTQTPLSLPVTPGEAASISCRSSQSLLDSEDGNTYLDWYLQKPGQSPQLLIYTLSHRASGVPDRFSGSGSGTDFTLEISRVEAEDVGVYYCMQRRDFPFTFGQGTKVDIK , give its reported EC50 [nM], PD1/PD-L1 blockade bioassay. 1.23
